test.system: DPP4 (Homo sapiens, UniProt P27487)
Sequence (P27487 whole entry): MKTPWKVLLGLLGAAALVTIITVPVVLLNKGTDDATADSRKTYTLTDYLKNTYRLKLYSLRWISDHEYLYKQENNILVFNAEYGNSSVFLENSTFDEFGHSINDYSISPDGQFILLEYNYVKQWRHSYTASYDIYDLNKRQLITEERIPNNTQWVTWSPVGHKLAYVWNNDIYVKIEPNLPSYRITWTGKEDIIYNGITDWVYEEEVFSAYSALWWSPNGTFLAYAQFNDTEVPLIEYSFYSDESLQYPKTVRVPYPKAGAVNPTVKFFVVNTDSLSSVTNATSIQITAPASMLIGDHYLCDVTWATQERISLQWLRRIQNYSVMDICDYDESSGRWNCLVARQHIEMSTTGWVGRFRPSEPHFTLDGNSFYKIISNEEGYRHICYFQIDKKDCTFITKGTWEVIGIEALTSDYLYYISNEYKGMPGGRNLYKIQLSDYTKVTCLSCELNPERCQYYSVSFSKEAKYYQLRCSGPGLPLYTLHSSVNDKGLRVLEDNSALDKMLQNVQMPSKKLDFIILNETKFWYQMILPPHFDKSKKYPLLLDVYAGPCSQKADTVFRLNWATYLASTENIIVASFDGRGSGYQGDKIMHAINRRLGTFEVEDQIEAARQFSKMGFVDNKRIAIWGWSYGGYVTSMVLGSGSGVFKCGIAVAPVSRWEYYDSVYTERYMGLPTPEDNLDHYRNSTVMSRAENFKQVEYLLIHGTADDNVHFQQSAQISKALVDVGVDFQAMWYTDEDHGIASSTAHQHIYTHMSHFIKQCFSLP
experimental.protocol: DPP4 activity assay (DPP4 inhibitor screening assay kit, Cayman);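 further: fluorescence read at excitation 360 nm and emission 460 nm after the enzyme reaction ran 30 min at 37 °C in a 96-well plate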
Assay type: biochemical
Set-up: purchased Cayman Chemical, Ann Arbor, MI, USA
test.conditions: 0.5 h, 10 µM; control mean 100.0; mean of Exp 1-3; read-out: DPP4 activity in library screen, Mean
// reported remaining activity at 10 µM per item
metric: remaining activity at 10 µM (%)

> print(dat)
                                   compound                          test.system                       metric  unit.text  result
1              O=C(O)c1cc(=O)[nH]c(=O)[nH]1  DPP4 (Homo sapiens, UniProt P27487)  remaining activity at 10 µM          %      89
2  C[C@@H]1O[C@@H](O[C@H]2[C@H](Oc3cc(O)c4c(c3)O[C@H](c3ccc(O)cc3)CC4=O)O[C@H](CO)[C@@H](O)[C@@H]2O)[C@H](O)[C@H](O)[C@H]1O  DPP4 (Homo sapiens, UniProt P27487)  remaining activity at 10 µM          %    89.2
3              COc1ccc2ccc(=O)oc2c1CC=C(C)C  DPP4 (Homo sapiens, UniProt P27487)  remaining activity at 10 µM          %    91.9
4  c1cc2c(cc1[C@H]1OC[C@H]3[C@@H]1CO[C@@H]3c1ccc3c(c1)OCO3)OCO2  DPP4 (Homo sapiens, UniProt P27487)  remaining activity at 10 µM          %    89.7
5    OC[C@@H](O)[C@@H](O)[C@H](O)[C@H](O)CO  DPP4 (Homo sapiens, UniProt P27487)  remaining activity at 10 µM          %    91.7
